Provide the reported melting point of each item.

Some solved entries appear below for comparison.
compound | melting point
COCCN1CCC(N2N=C(c3ccc(OC)c(OC)c3)[C@H]3CC=CC[C@H]3C2=O)CC1.Cl [Compound 9] | 87 to 90 °C
COc1ccc(C2=NN(C3CCN(C(=O)CCS(=O)(=O)CCNC(=O)N4CCOCC4)CC3)C(=O)C3CC=CCC23)cc1OC (centres unmarked) [Compound 5] | 118 to 121 °C
COc1ccc(C2=NN(C3CCN(CCOCCN)CC3)C(=O)[C@@H]3CC=CC[C@H]23)cc1OC.Cl.Cl | 86 to 89 °C
COc1ccc(C2=NN(C3CCN(C(=O)CS(C)(=O)=O)CC3)C(=O)[C@@H]3CC=CC[C@H]23)cc1OC [Compound 1] | 169 to 170 °C
COc1ccc(C2=NN(C3CCN(C(=O)CCCOc4ccc5[nH]c(=O)ccc5c4)CC3)C(=O)CC2)cc1OC [Compound 15] | 169 to 171 °C

Answer for every listed entry: what is its melting point? The entries follow.
1. COc1ccc(C2=NN(C3CCN(CCS(C)(=O)=O)CC3)C(=O)[C@@H]3CC=CC[C@H]23)cc1OC.Cl [Compound 11]
2. COc1ccc(C2=NN(C3CCN(Cc4ccc(-n5cnc6ccccc65)cc4)CC3)C(=O)[C@@H]3CC=CC[C@H]23)cc1OC.Cl [Compound 3]
3. COc1ccc(C2=NN(C3CCN(CC(=O)c4cc5ccccc5o4)CC3)C(=O)C3CC=CCC23)cc1OC (centres unmarked) [Compound 2]

["87 to 90 °C", "147 to 149 °C", "188 to 189 °C"]

Where do the numbers come from? From patent US20060094710A1.
